Biological target: Recombinant human FAP (Homo sapiens)
Construct: purchased R&D systems 3715-SE
Sequence (Q12884 26-760 limits assumed): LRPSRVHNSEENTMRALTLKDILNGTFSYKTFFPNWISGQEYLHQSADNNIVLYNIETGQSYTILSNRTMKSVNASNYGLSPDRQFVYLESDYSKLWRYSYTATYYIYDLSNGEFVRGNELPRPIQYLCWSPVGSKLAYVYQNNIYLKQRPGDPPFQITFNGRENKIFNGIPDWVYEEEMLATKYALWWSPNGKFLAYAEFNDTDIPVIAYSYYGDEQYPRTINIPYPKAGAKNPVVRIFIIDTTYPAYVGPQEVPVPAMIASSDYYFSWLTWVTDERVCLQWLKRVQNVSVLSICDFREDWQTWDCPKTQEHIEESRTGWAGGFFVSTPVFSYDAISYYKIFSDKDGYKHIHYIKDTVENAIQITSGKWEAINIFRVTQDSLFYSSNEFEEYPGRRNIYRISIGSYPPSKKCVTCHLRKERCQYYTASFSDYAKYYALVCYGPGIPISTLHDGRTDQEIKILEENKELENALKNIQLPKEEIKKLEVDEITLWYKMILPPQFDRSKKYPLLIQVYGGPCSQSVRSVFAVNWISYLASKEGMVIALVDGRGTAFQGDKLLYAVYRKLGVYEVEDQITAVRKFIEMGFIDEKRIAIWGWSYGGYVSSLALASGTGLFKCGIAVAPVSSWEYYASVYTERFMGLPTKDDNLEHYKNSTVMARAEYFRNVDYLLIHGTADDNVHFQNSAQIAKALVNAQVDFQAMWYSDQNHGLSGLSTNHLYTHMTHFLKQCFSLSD
Assay: FRET-based FAP protease activity assay
Assay type: biochemical
Settings: recombinant human FAP, FRET-peptide substrate, 37° C.; read-out: pIC50 Category (Activity) (converted)
*1 amine or outer side, *2 acyl side, *3 side chain or, on linkers, in order; H or OH if unused. Where a SMILES comes first, the peptide text is derived from it. Bridges are numbered along the chain shown (N, C = ends). [ ]: non-standard residue; d: D form. The star is where a group is joined. X11 = O=C(O)CN1CCN(CC(=O)O)CCN([C@H](CCC(=O)*)C(=O)O)CC1; X2 = O=C1NC(=O)C([*:3])=C1CC[C@H](N[*:1])C(=O)[*:2]; Hexanoyl = CCCCCC(=O)*
Below, each entry is listed alongside its reported IC50.

State, in one line, measured IC50 of "CCCC[C@H](NC(=O)CCC(=O)NCCCOCCOCCOCCCNC(=O)CN1CCN(CC(=O)O)CCN(CC(=O)O)CCN(CC(=O)O)CC1)C(=O)N[C@H]1CSSC[C@@H](C(=O)O)NC(=O)[C@H](Cc2ccccc2)NC(=O)[C@H](CCC(N)=O)NC(=O)[C@H]([C@@H](C)O)NC(=O)[C@@H]2CCCN2C(=O)[C@@H]2CCCN2C1=O"
< 0.1 µM

State, in one line, measured IC50 of "CCCCCC(=O)N[C@H]1CSC2=C(SC[C@@H](C(=O)O)NC(=O)[C@H](Cc3ccccc3)NC(=O)[C@H](CCC(N)=O)NC(=O)[C@H]([C@@H](C)O)NC(=O)[C@@H]3CCCN3C(=O)[C@@H]3CCCN3C1=O)C(=O)N(CCCOCCOCCOCCCNC(=O)CN1CCN(CC(=O)O)CCN(CC(=O)O)CCN(CC(=O)O)CC1)C2=O"
< 0.1 µM

State, in one line, measured IC50 of CCCCCC(=O)N[C@H]1CSC2=C(CC[C@@H](C(=O)N[C@@H](CC(=O)O)C(=O)N[C@@H](CCCCNC(=O)CC[C@H](C(=O)O)N3CCN(CC(=O)O)CCN(CC(=O)O)CC3)C(N)=O)NC(=O)[C@H](Cc3ccccc3)NC(=O)[C@H](CCC(N)=O)NC(=O)[C@H]([C@@H](C)O)NC(=O)[C@@H]3CCCN3C(=O)[C@@H]3CCCN3C1=O)C(=O)NC2=O [Compound 2023] (Hexanoyl-CPPTQF[X2]DK(X11)-NH2; thioether 1-7)
< 0.1 µM
